The values you see were collected from patent US12264146B2.

Field: IC50 at 24 h. Provide a value for each of the compounds that follow.
# Test protocol: Toxicity test on endothelial cells EA.hy926, CCK-8 cell viability
# Assay type: cell-based
# Condition label: human, 1000~0.32 μmol/L, 5-fold dilution, read-out: IC50 of Test compound (cytotoxicity on EA.hy926 cells)
Numbers only, in µM.

- Compound: "CCc1cnc(O)c2cccc(S(=O)(=O)N3CCCNC[C@H]3C)c12"
  Endpoint name: "IC50 at 24 h"
  Meas value: 230

Value sought for every listed compound: IC50 at 24 h.
1. COc1ncc(F)c2c(S(=O)(=O)N3CCCNCC3C)cccc12 (racemic)
2. C[C@@H]1CNCCCN1S(=O)(=O)c1cccc2cnccc12
3. COc1ncc(F)c2c(S(=O)(=O)N3CCCNC[C@H]3C)cccc12
4. COc1ncc(C2CC2)c2c(S(=O)(=O)N3CCCNCC3C)cccc12 (racemic)
5. CC1CNCCCN1S(=O)(=O)c1cccc2c(O)ncc(Cl)c12 (racemic)
6. CC1CNCCCN1S(=O)(=O)c1cccc2cnccc12 (racemic)
7. COc1nccc2c(S(=O)(=O)N3CCCNCC3C)cccc12 (racemic)

# output
1. 103
2. 256
3. 184
4. 85.1
5. 98
6. 176
7. 333

* * *

Field: IC50 at 24 h. Provide a value for each of the compounds that follow.
# Test protocol: Toxicity test on endothelial cells EA.hy926, CCK-8 cell viability
# Assay type: cell-based
# Condition label: human, 1000~0.32 μmol/L, 5-fold dilution, read-out: IC50 of Test compound (cytotoxicity on EA.hy926 cells)
Counter-ions that a name gives are not always drawn.
Give bare numbers, in µM.

Worked examples, 3 compounds total:
- Compound: "CC[C@@H]1CNCCCN1S(=O)(=O)c1cccc2c(OC)nccc12 [Compound R-YK1610]"
  Result units: "µM"
  IC50 at 24 h: 169
- Compound: "CCC1CNCCCN1S(=O)(=O)c1cccc2c(OC)nccc12 (racemic) [Compound YK1610]"
  Result units: "µM"
  IC50 at 24 h: 98.8
- Compound: "C[C@@H]1CNCCCN1S(=O)(=O)c1cccc2c(O)ncc(F)c12 [Compound R-YK1604]"
  Result units: "µM"
  IC50 at 24 h: 210

# input Supply recorded IC50 at 24 h for O=S(=O)(c1cccc2cnccc12)N1CCCNCC1 [Fasudil hydrochloride, reference compound] here.
# output 75.7
